# Test system: mice
# assay-name: Standard test for evaluation of inhalation anesthetics (rotating drum, 10 minutes exposure; AC50, LC50, AI)
# Format: in vivo
# assay-context: mice, inhalation, 10 minutes exposure in rotating drum; where two percentages are given the actual vapor concentration lies between them
Reported LC50 (minimum concentration required to kill 50% of the mice) values for a set of compounds
Respond with the bare value in % volume.

Previously resolved entries follow.
INSERT INTO measurements (compound, value_measured) VALUES
  ('FC1(F)CCC1(F)Br (stereo not shown) [VIII, 1-bromo-1,2,2-trifluorocyclobutane]', 3.5),
  ('FC1(F)CC(Cl)C1(F)Br (stereo not shown) [Example X]', 0.5),
  ('FC1CCC1(F)F (stereo not shown) [VII, 1,2,2-trifluorocyclobutane]', 8);

Q) Would you mind telling me what LC50 (minimum concentration required to kill 50% of the mice) value was observed for FC1CC(F)(F)C1Cl (stereo not shown) [VI, 1-chloro-2,4,4-trifluorocyclobutane] ?
A) 2

Q) Would you mind telling me what LC50 (minimum concentration required to kill 50% of the mice) value was observed for FC1(F)CCC1(F)F [Example XII, 1,1,2,2-tetrafluorocyclobutane, reference compound] ?
A) 12

Q) Would you mind telling me what LC50 (minimum concentration required to kill 50% of the mice) value was observed for FC1(F)CC(Cl)(Cl)C1(F)Cl (stereo not shown) [XIII, reference compound] ?
A) 1

Q) Would you mind telling me what LC50 (minimum concentration required to kill 50% of the mice) value was observed for FC1(F)CC(Cl)C1(F)Cl (stereo not shown) [I, b.p. 107°C] ?
A) 1.2

Q) Would you mind telling me what LC50 (minimum concentration required to kill 50% of the mice) value was observed for FC1(F)CC(F)(Cl)C1(F)F (stereo not shown) [V] ?
A) 10

Q) Would you mind telling me what LC50 (minimum concentration required to kill 50% of the mice) value was observed for FC1(F)CC(Cl)C1(F)Cl (stereo not shown) [I, b.p. 104°C] ?
A) 0.8

====

Reported LC50 (minimum concentration required to kill 50% of the mice) values for a set of compounds
# Test system: mice
# assay-name: Standard test for evaluation of inhalation anesthetics (rotating drum, 10 minutes exposure; AC50, LC50, AI)
# Type: in vivo
# assay-context: mice, inhalation, 10 minutes exposure in rotating drum; where two percentages are given the actual vapor concentration lies between them

Previously resolved entries follow.
INSERT INTO results (compound, value_measured) VALUES
  ('FC1CC(F)(F)C1(F)Cl (stereo not shown)', '3-3.5 % volume'),
  ('FC1C(Cl)CC1(F)F (stereo not shown)', '≥ 4 % volume'),
  ('CC1CC(F)(F)C1(F)Br (stereo not shown)', '1.5-1.75 % volume');

Continue with the compound presented below.
Q) Would you mind telling me what LC50 (minimum concentration required to kill 50% of the mice) value was observed for FC1(F)CC(F)(Cl)C1(F)Cl (stereo not shown) ?
A) 2-3 % volume

Source listed as patent US3954893A.
